# Read-out: adenosine kinase (ADK) gene, ADK (gene 132)
# PROTOCOL SUMMARY: LTEA_HepaRG_ADK: Life Technologies and Expression Analysis (LTEA) Assay for adenosine kinase (ADK) gene using HepaRG (AID 2283471)
# ASSAY CONTEXT: mRNA level, 48 h; actives raise or lower the signal
# Procedure: LTEA_HepaRG is a cell based, multiplexed-readout assay that uses HepaRG, a human liver cell line, with measurements taken at 48 hours after chemical dosing on a 96-well plate.LTEA_HepaRG_ADK is one of 102 assay component(s) measured in the LTEA HepaRG cell culture assay. It is a marker of Steatosis.Data from the assay component LTEA_HepaRG_ADK was analyzed into 1 endpoint. […]
Active and inactive are the calls of the source. The calls were made as follows: active = hit-call score of the fitted dose curve at least 0.9, where 1 is the maximum; inactive = score below 0.9.
Response enum: active, inactive

Examples with answers:
COMPOUND	CAT
CCNc1nc(Cl)nc(NCC)n1	inactive
COc1cnc(OC)n2nc(NS(=O)(=O)c3c(OCC(F)F)cccc3C(F)(F)F)nc12	inactive
C=CCC1=C(C)[C@@H](OC(=O)[C@@H]2[C@@H](C=C(C)C)C2(C)C)CC1=O	inactive
CC(C)C1(C)N=C(c2nc3ccccc3cc2C(=O)O)NC1=O (stereo unspecified)	inactive
C=CCC1=C(C)C(OC(=O)C2C(C=C(C)C)C2(C)C)CC1=O (stereo unspecified)	inactive

stdin: Recorded call for COC(=O)c1ccccc1C(=O)OC ?
stdout: inactive

stdin: Recorded call for CCOC(=O)CC(SP(=S)(OC)OC)C(=O)OCC (stereo unspecified) ?
stdout: inactive

---

# PROTOCOL SUMMARY: CCTE_Shafer_MEA_acute_per_network_burst_spike_number_std: CCTE's Neural Acute Assay for Standard Deviation of Number of Spikes in a Network Burst, Shafer Lab (AID 2284020);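 also: fitted for decrease in spike-number SD versus DMSO so actives lower it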
Activity calls are given as the source filed them. Rule for the calls: active = hit-call score of the fitted dose curve at least 0.9, where 1 is the maximum; inactive = score below 0.9.
Response enum: Y for active, N for inactive

stdin: Recorded call for CO/C=C(/C(=O)OC)c1ccccc1Oc1cc(Oc2ccccc2C#N)ncn1 ?
stdout: N

stdin: Recorded call for CCOP(=S)(OCC)SCn1c(=O)oc2cc(Cl)ccc21 ?
stdout: N

stdin: Recorded call for CS/C(C)=N/OC(=O)N(C)SN(C)C(=O)O/N=C(\C)SC ?
stdout: Y

stdin: Recorded call for CC(C)Oc1cc(-n2nc(C(C)(C)C)oc2=O)c(Cl)cc1Cl ?
stdout: N

stdin: Recorded call for CCCCNC(=O)OCC#CI ?
stdout: Y

---

# Read-out: Cytochrome P450 3A4 (Homo sapiens) (UniProt P08684)
# Sequence (P08684 whole entry, looked up): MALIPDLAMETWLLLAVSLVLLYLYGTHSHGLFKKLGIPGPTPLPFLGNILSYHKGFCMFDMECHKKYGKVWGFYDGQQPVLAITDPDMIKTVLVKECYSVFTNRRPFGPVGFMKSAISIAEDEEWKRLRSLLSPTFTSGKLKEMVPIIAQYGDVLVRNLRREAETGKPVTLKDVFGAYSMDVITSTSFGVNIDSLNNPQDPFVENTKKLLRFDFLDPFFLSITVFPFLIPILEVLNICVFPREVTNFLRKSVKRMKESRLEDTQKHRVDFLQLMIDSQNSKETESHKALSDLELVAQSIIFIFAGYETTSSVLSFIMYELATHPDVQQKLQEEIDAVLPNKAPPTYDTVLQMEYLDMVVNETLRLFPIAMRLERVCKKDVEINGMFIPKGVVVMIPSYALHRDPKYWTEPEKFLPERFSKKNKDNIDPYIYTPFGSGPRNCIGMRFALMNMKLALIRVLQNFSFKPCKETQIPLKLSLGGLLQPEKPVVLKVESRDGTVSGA
# PROTOCOL SUMMARY: CLD_CYP3A4_24hr: CellzDirect (CLD) Gene Expression Assay for xenobiotic metabolism (CYP3A4) at 24 hours (AID 2283689)
Inconclusive results are not listed. The source made the active and inactive calls. The calls were made as follows: active = hit-call score of the fitted dose curve at least 0.9, where 1 is the maximum; inconclusive = response in the unintended direction; inactive = score below 0.9.
QUANTITY: AC50

COMPOUND	QUANTITY	VALUE MEASURED
O=C(O)c1nc(Cl)ccc1Cl	AC50	inactive
COC(=O)N(OC)c1ccccc1COc1ccn(-c2ccc(Cl)cc2)n1	AC50	3.73 µM (active)
CC1=C(C(=O)Nc2ccccc2)SCCO1	AC50	6.76 µM (active)
O=C(Nc1ccccc1)Nc1ccnc(Cl)c1	AC50	inactive
CC(C)Oc1cc(-n2nc(C(C)(C)C)oc2=O)c(Cl)cc1Cl	AC50	1.9 µM (active)
N#Cc1nn(-c2c(Cl)cc(C(F)(F)F)cc2Cl)c(N)c1S(=O)C(F)(F)F (stereo not given)	AC50	1.89 µM (active)
CCCN(CCC)c1c([N+](=O)[O-])cc(S(N)(=O)=O)cc1[N+](=O)[O-]	AC50	11.1 µM (active)
C#CCOS(=O)OC1CCCCC1Oc1ccc(C(C)(C)C)cc1 (stereo not given)	AC50	1.89 µM (active)

stdin: Quick one: give measured AC50 for Cc1ccc(-c2c(Cl)nc(C#N)n2S(=O)(=O)N(C)C)cc1
stdout: inactive

stdin: Quick one: give measured AC50 for CCNc1nc(Cl)nc(NC(C)C)n1
stdout: 20 µM (active)

---

# Read-out: xenobiotic metabolism (CYP1A1), CYP1A1 (gene 1543)
# PROTOCOL SUMMARY: CLD_CYP1A1_48hr: CellzDirect (CLD) Gene Expression Assay for xenobiotic metabolism (CYP1A1) at 48 hours (AID 2283705)
Inconclusive results are not listed. Active and inactive are the calls of the source. Rule for the calls: active = hit-call score of the fitted dose curve at least 0.9, where 1 is the maximum; inconclusive = response in the unintended direction; inactive = score below 0.9.
Response enum: true (1) = active, false (0) = inactive

COMPOUND	CAT
CC(C)Oc1cc(-n2nc(C(C)(C)C)oc2=O)c(Cl)cc1Cl	true (1)
O=C(O)COc1nc(Cl)c(Cl)cc1Cl	false (0)
CON(C)C(=O)Nc1ccc(Cl)c(Cl)c1	true (1)

stdin: Recorded call for N#Cc1nn(-c2c(Cl)cc(C(F)(F)F)cc2Cl)c(N)c1S(=O)C(F)(F)F (stereo unspecified) ?
stdout: false (0)

stdin: Recorded call for O=C(Nc1ccccc1)Nc1ccnc(Cl)c1 ?
stdout: true (1)

stdin: Recorded call for CC1=C(C(=O)Nc2ccccc2)SCCO1 ?
stdout: true (1)

---

# PROTOCOL SUMMARY: BSK_LPS_PGE2: BioMAP Diversity Plus: LPS Assay for Prostaglandin E2 (PGE2) Biomarker Activity (AID 2283082)
# ASSAY CONTEXT: primary human HUVEC with PBMC; actives raise or lower the signal
Calls of active or inactive are those of the source. Rule for the calls: active = hit-call score of the fitted dose curve at least 0.9, where 1 is the maximum; inactive = score below 0.9.
Response enum: active, inactive

Examples with answers:
COMPOUND	CAT
CCCCOC(=O)c1ccccc1C(=O)OCCCC	inactive
O=C(O)COc1nc(Cl)c(Cl)cc1Cl	inactive

stdin: Recorded call for COc1nc(C)nc(NC(=O)NS(=O)(=O)c2ccccc2Cl)n1 ?
stdout: inactive

stdin: Recorded call for CC1COC(Cn2cncn2)(c2ccc(Oc3ccc(Cl)cc3)cc2Cl)O1 (stereo unspecified) ?
stdout: active

stdin: Recorded call for COc1cnc(OC)n2nc(NS(=O)(=O)c3c(OCC(F)F)cccc3C(F)(F)F)nc12 ?
stdout: inactive

stdin: Recorded call for N#Cc1nn(-c2c(Cl)cc(C(F)(F)F)cc2Cl)c(N)c1S(=O)C(F)(F)F (stereo unspecified) ?
stdout: inactive

---

# Read-out: Human Leukocyte Antigen - DR isotype (HLADR), HLA-DRA (gene 3122)
# PROTOCOL SUMMARY: BSK_CASM3C_HLADR: BioMAP Diversity Plus: CASM3C Assay for Human Leukocyte Antigen - DR isotype (HLADR) Biomarker Activity (AID 2283043);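 also: cell-surface HLA-DR protein level quantified by ELISA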
# ASSAY CONTEXT: primary human coronary artery smooth muscle cells; actives raise or lower the signal
Calls of active or inactive are those of the source. Rule for the calls: active = hit-call score of the fitted dose curve at least 0.9, where 1 is the maximum; inactive = score below 0.9.

COMPOUND	outcome
CC(C)C1(C)N=C(c2nc3ccccc3cc2C(=O)O)NC1=O (stereo not drawn)	inactive
Cc1cc(Cl)ccc1OCC(=O)O	inactive
CCOC(=O)C(Cl)Cc1cc(-n2nc(C)n(C(F)F)c2=O)c(F)cc1Cl (stereo not drawn)	inactive

---

# PROTOCOL SUMMARY: BSK_4H_SRB: Viability Assessment in the BioMAP Diversity Plus: 4H Assay (AID 2283027);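 also: cells exposed to compound for 24 h before staining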
# ASSAY CONTEXT: primary human endothelial cells (HUVEC)
Active and inactive are the calls of the source. Rule for the calls: active = hit-call score of the fitted dose curve at least 0.9, where 1 is the maximum; inactive = score below 0.9.
Response enum: active, inactive

Examples with answers:
COMPOUND	CAT
O=C(O)c1nc(Cl)ccc1Cl	inactive
COc1nc(C)nc(NC(=O)NS(=O)(=O)c2ccccc2Cl)n1	inactive
N#CC(CCc1ccc(Cl)cc1)(Cn1cncn1)c1ccccc1 (stereo unspecified)	inactive
COP(=S)(OC)Oc1nc(Cl)c(Cl)cc1Cl	inactive
CCCN(CCC)c1c([N+](=O)[O-])cc(S(N)(=O)=O)cc1[N+](=O)[O-]	active

Now turn to the next compound.
stdin: Recorded call for CC1COC(Cn2cncn2)(c2ccc(Oc3ccc(Cl)cc3)cc2Cl)O1 (stereo unspecified) ?
stdout: active

---

# TARGET ENTITY: Estrogen receptor beta (Homo sapiens) (UniProt Q92731)
# Sequence (Q92731 whole entry, looked up): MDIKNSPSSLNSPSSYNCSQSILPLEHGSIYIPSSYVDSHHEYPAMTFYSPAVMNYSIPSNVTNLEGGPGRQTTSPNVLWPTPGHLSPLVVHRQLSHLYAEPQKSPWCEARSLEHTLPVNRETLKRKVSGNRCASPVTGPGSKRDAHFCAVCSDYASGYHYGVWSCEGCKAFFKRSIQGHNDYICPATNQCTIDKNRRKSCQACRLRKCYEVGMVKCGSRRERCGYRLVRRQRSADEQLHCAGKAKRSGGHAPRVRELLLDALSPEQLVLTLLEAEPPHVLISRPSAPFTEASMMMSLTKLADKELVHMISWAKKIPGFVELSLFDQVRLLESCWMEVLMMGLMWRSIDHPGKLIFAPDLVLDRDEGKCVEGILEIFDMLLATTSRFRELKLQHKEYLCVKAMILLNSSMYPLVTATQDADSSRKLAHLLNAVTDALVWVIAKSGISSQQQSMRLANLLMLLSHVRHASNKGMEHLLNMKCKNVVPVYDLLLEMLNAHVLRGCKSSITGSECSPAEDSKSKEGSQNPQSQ
# PROTOCOL SUMMARY: OT_ER_ERbERb_0480: Odyssey Thera (OT) 8-hour HEK293T Protein-Complementation Assay for Estrogen Receptor-beta/-beta Homodimer (AID 2283357);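 also: active means signal gain over DMSO baseline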
Inconclusive results are not listed. Active and inactive are the calls of the source. Rule for the calls: active = hit-call score of the fitted dose curve at least 0.9, where 1 is the maximum; inconclusive = response in the unintended direction; inactive = score below 0.9.
Response enum: active, inactive

Examples with answers:
MOLECULE	CAT
CN(C)C(=S)SSC(=S)N(C)C	inactive
COC(=O)N(OC)c1ccccc1COc1ccn(-c2ccc(Cl)cc2)n1	inactive
CCOP(=S)(OCC)SCn1c(=O)oc2cc(Cl)ccc21	inactive
CCc1nn(C)c(C(=O)NCc2ccc(C(C)(C)C)cc2)c1Cl	inactive
CCNc1nc(Cl)nc(NC(C)C)n1	inactive
OC(c1ccc(Cl)cc1)(c1cncnc1)c1ccccc1Cl (configuration not stated)	active
N#CC(CCc1ccc(Cl)cc1)(Cn1cncn1)c1ccccc1 (configuration not stated)	inactive
COP(=S)(OC)Oc1nc(Cl)c(Cl)cc1Cl	inactive
COC(=O)C(C)Oc1ccc(Oc2ccc(Cl)cc2Cl)cc1 (configuration not stated)	inactive
COc1nc(NC(C)C)nc(NC(C)C)n1	inactive

stdin: Recorded call for CC(C)Oc1cc(-n2nc(C(C)(C)C)oc2=O)c(Cl)cc1Cl ?
stdout: inactive

stdin: Recorded call for COc1cnc(OC)n2nc(NS(=O)(=O)c3c(OCC(F)F)cccc3C(F)(F)F)nc12 ?
stdout: inactive
